The reported measurements were obtained from ChEMBL document CHEMBL1123369.

system: Pseudomonas aeruginosa; test: In vitro antibacterial activity against Pseudomonas aeruginosa 5007; assay type: functional
endpoint-label: MIC (µg/mL)
Form entry: value (µg/mL) — number only.

Worked cases, answers included:
>  <compound>
O=C(O)c1cn(-c2ccccc2)c2nc(N3CCNCC3)c(F)cc2c1=O

>  <measurement-units>
µg/mL

>  <MIC>
1.56

$$$$
>  <compound>
CC1CN(c2nc3c(cc2F)c(=O)c(C(=O)O)cn3-c2ccc(F)cc2)CCN1 (configuration not stated)

>  <measurement-units>
µg/mL

>  <MIC>
1.56

$$$$
>  <compound>
Cl.O=C(O)c1cn(-c2ccc(F)cc2)c2cc(N3CCNCC3)c(F)cc2c1=O [SARAFLOXACIN HYDROCHLORIDE]

>  <measurement-units>
µg/mL

>  <MIC>
0.39

$$$$
>  <compound>
CN1CCN(c2nc3c(cc2F)c(=O)c(C(=O)O)cn3-c2ccc(F)cc2F)CC1

>  <measurement-units>
µg/mL

>  <MIC>
3.1

$$$$
>  <compound>
O=C(O)c1cn(-c2ccc(F)cc2F)c2nc(N3CCNCC3)c(F)cc2c1=O

>  <measurement-units>
µg/mL

>  <MIC>
0.39

$$$$

Prompt line: Item under review: NC1CCN(c2nc3c(cc2F)c(=O)c(C(=O)O)cn3-c2ccc(F)cc2F)C1 (configuration not stated) . Reported MIC?
Response line: 0.2

Prompt line: Same thing, different compound: CC1CN(c2nc3c(cc2F)c(=O)c(C(=O)O)cn3-c2ccc(F)cc2F)CCN1 (configuration not stated)
Response line: 1.56

---

tested on: Pseudomonas aeruginosa; assay: In vitro antibacterial activity against Pseudomonas aeruginosa K799/WT; type: functional
endpoint-label: MIC (µg/mL)
Form entry: value (µg/mL) — number only.

Worked cases, answers included:
>  <compound>
NC1CCN(c2nc3c(cc2F)c(=O)c(C(=O)O)cn3-c2ccc(F)cc2)C1 (stereo not given)

>  <value-reported>
0.2

$$$$
>  <compound>
Cl.O=C(O)c1cn(-c2ccc(F)cc2)c2cc(N3CCNCC3)c(F)cc2c1=O [SARAFLOXACIN HYDROCHLORIDE]

>  <value-reported>
0.39

$$$$

Prompt line: Tell me reported MIC for `O=C(O)c1cn(-c2ccccc2)c2nc(N3CCNCC3)c(F)cc2c1=O` , tested with Pseudomonas aeruginosa.
Response line: 1.56

Prompt line: Same thing, different compound: `CN1CCN(c2nc3c(cc2F)c(=O)c(C(=O)O)cn3-c2ccc(F)cc2)CC1`
Response line: 1.56

Prompt line: Same thing, different compound: `O=C(O)c1cn(-c2ccc(F)cc2)c2nc(N3CCNCC3)c(F)cc2c1=O`
Response line: 0.39
